Tested on: NCI-H23 complex spheroids with HUVEC/MSC, viability
testDetails: Anticancer human tumor NCI-H23 cell line growth inhibition [RAS]; active means viability on the fitted dose curve at most 10% of control; inactive means the rest;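 further: spheroids exposed to compound for 7 days; 100% = DMSO vehicle control viability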
details: second compound 0.1 µM; first compound 10 µM
I would appreciate it if you answered using one of these outcomes: label 1 = active, label 0 = inactive

• CC(=O)OC12COC1CC(O)C1(C)C(=O)C(O)C3=C(C)C(OC(=O)C(O)C(NC(=O)OC(C)(C)C)c4ccccc4)CC(O)(C(OC(=O)c4ccccc4)C21)C3(C)C (centres undefined) + C#Cc1c(F)ccc2cc(O)cc(-c3ncc4c(N5CC6CCC(C5)N6)nc(OCC56CCCN5CC(F)C6)nc4c3F)c12 = label 0
• C[C@@H](NC(=O)c1ncnc(N)c1Cl)c1ncc(C(=O)Nc2cc(C(F)(F)F)c(Cl)cn2)s1 + C#Cc1c(F)ccc2cc(O)cc(-c3ncc4c(N5CC6CCC(C5)N6)nc(OCC56CCCN5CC(F)C6)nc4c3F)c12 = label 0
• CC(C)NCC(C(=O)N1CCN(c2ncnc3c2C(C)CC3O)CC1)c1ccc(Cl)cc1 (centres undefined) + C#Cc1c(F)ccc2cc(O)cc(-c3ncc4c(N5CC6CCC(C5)N6)nc(OCC56CCCN5CC(F)C6)nc4c3F)c12 = label 0
• NC1c2ccccc2OC12CCN(c1cnc3c(N4CCCc5ncccc54)n[nH]c3n1)CC2 (centres undefined) + C#Cc1c(F)ccc2cc(O)cc(-c3ncc4c(N5CC6CCC(C5)N6)nc(OCC56CCCN5CC(F)C6)nc4c3F)c12 = label 0
• CC1(O)CCCC1n1c(=O)c(C(F)F)cc2cnc(NC3CCN(S(C)(=O)=O)CC3)nc21 (centres undefined) + C=CC(=O)N1CCN(c2nc(OCC3CCCN3C)nc3c(F)c(-c4nc(N)cc(C)c4C(F)(F)F)c(Cl)cc23)C(C)C1 = label 1

// query Given NC1c2ccccc2OC12CCN(c1cnc3c(N4CCCc5ncccc54)n[nH]c3n1)CC2 (centres undefined) + C=CC(=O)N1CCN(c2nc(OCC3CCCN3C)nc3c(F)c(-c4nc(N)cc(C)c4C(F)(F)F)c(Cl)cc23)C(C)C1 , state the outcome it received in this test.
// result label 1

// query Given CC(=O)OC12COC1CC(O)C1(C)C(=O)C(O)C3=C(C)C(OC(=O)C(O)C(NC(=O)OC(C)(C)C)c4ccccc4)CC(O)(C(OC(=O)c4ccccc4)C21)C3(C)C (centres undefined) + C=CC(=O)N1CCN(c2nc(OCC3CCCN3C)nc3c(F)c(-c4nc(N)cc(C)c4C(F)(F)F)c(Cl)cc23)C(C)C1 , state the outcome it received in this test.
// result label 0

// query Given Cc1nc(N2CCC3(CC2)COC(C)C3N)c(CO)nc1Sc1ccnc(N)c1Cl (centres undefined) + C#Cc1c(F)ccc2cc(O)cc(-c3ncc4c(N5CC6CCC(C5)N6)nc(OCC56CCCN5CC(F)C6)nc4c3F)c12 , state the outcome it received in this test.
// result label 0

// query Given C[C@@H](NC(=O)c1ncnc(N)c1Cl)c1ncc(C(=O)Nc2cc(C(F)(F)F)c(Cl)cn2)s1 + C=CC(=O)N1CCN(c2nc(OCC3CCCN3C)nc3c(F)c(-c4nc(N)cc(C)c4C(F)(F)F)c(Cl)cc23)C(C)C1 , state the outcome it received in this test.
// result label 0
